Data provenance is patent US20250170248A1.

target: UniProt P51531; experiment: SMARCA2 Western blot degradation in MV4-11 cells; format: cell-based; set-up: SMARCA2/SMARCA4 protein degradation selectivity in MV4-11 cells; endogenous in cells; host or cells: MV4-11; details: MV4-11 cells, 24 h; read-out: SMARCA2 MSD MV411 degradation 24 h: Mean external-Abs DC50
measureName: DC50

| molecule | measureName | reportedValue |
| --- | --- | --- |
| C#Cc1ccc(CNC(=O)[C@@H]2C[C@@H](O)CN2C(=O)[C@@H](NC(=O)CN2CCC(N3CC4(CC(N5CCN6c7cc(-c8ccccc8O)nnc7NC[C@H]6C5)C4)C3)CC2)C(C)(C)C)cc1 | DC50 | < 1 nM |
| Cc1ncsc1-c1ccc(CNC(=O)[C@@H]2C[C@@H](O)CN2C(=O)[C@@H](NC(=O)[C@H]2CC3(CC[C@H](N4CCN(c5cnc(N6CCc7[nH]c8nnc(-c9ccccc9O)cc8c7[C@H]6C)nc5)CC4)CC3)C2)C(C)(C)C)cc1 (single isomer, unassigned) [I-78] | DC50 | 10 to 100 nM |

Query :: Read the entry C#Cc1ccc(CNC(=O)[C@@H]2C[C@@H](O)CN2C(=O)[C@@H](NC(=O)C2CCC3(CC2)CC(N2CCC(c4ccc(N5CCN6c7cc(-c8ccccc8O)nnc7NC[C@H]6C5)cc4)CC2)C3)C(C)(C)C)cc1 (some centres unmarked) and write its reported DC50.
Result :: > 100 nM

Query :: State its DC50 for this molecule: Cc1ncsc1-c1ccc(CNC(=O)[C@@H]2C[C@@H](O)CN2C(=O)C(c2cc(N3CCC4(CC3)CC(N3CCC(c5cnc(N6CCc7[nH]c8nnc(-c9ccccc9O)cc8c7[C@H]6C)nc5)CC3)C4)no2)C(C)C)cc1 (some centres unmarked)
Result :: 1 to 10 nM

Query :: Identify measured DC50 associated with Cc1ncsc1-c1ccc(CNC(=O)[C@@H]2C[C@@H](O)CN2C(=O)C(c2cc(N3CCC(CCN4CCC(c5cnc(N6CCc7[nH]c8nnc(-c9ccccc9O)cc8c7[C@H]6C)nc5)CC4)CC3)no2)C(C)C)cc1 (some centres unmarked)
Result :: 1 to 10 nM

====

molecular target: UniProt P51531; assay: MSD SMARCA2 degradation in A549 cell line; assay type: cell-based; conditions: A549, A549 cells, 24 h
measureName: Dmax

Past entries and their recorded results:
| compound | reportedValue |
| --- | --- |
| C#Cc1ccc(CNC(=O)[C@@H]2C[C@@H](O)CN2C(=O)[C@@H](NC(=O)N2CC3(CC(N4CCC(c5cnc(N6CCc7[nH]c8nnc(-c9ccccc9O)cc8c7[C@H]6C)s5)CC4)C3)C2)C(C)(C)C)cc1 | > 90% |
| C#Cc1ccc(CNC(=O)[C@@H]2C[C@@H](O)CN2C(=O)[C@@H](NC(=O)N2CC3(CC(N4CCC(c5cnc(N6CCc7[nH]c8nnc(-c9ccccc9O)cc8c7[C@H]6C)nc5)CC4)C3)C2)C(C)(C)C)cc1Cl | > 90% |
| C#Cc1ccc([C@H](C)NC(=O)[C@@H]2C[C@@H](O)CN2C(=O)[C@@H](NC(=O)N2CC3(CC(N4CCC(N5CCC(N6CCc7[nH]c8nnc(-c9ccccc9O)cc8c7[C@H]6C)CC5)CC4)C3)C2)C(C)(C)C)cc1 | > 90% |

Now, please, on to the next compound.
Query :: # return recorded Dmax for entry Cc1ncsc1-c1ccc(CNC(=O)[C@@H]2C[C@@H](O)CN2C(=O)C(c2cc(OC[C@H]3CC[C@@H](N4CCC(c5cnc(N6CCc7[nH]c8nnc(-c9ccccc9O)cc8c7[C@H]6C)nc5)CC4)CC3)no2)C(C)C)cc1 (single isomer, unassigned)
Result :: 70 to 90%

====

biological target: SMARCA2 (Homo sapiens, UniProt P51531); assay: SMARCA2 Western blot degradation in MV4-11 cells; format: cell-based; design: SMARCA2/SMARCA4 protein degradation selectivity in MV4-11 cells; endogenous in cells; host or cells: MV4-11; conditions: MV4-11 cells, 24 h; read-out: SMARCA2 MSD MV411 degradation 24 h: Mean external-Abs DC50
Sequence (P51531 whole entry): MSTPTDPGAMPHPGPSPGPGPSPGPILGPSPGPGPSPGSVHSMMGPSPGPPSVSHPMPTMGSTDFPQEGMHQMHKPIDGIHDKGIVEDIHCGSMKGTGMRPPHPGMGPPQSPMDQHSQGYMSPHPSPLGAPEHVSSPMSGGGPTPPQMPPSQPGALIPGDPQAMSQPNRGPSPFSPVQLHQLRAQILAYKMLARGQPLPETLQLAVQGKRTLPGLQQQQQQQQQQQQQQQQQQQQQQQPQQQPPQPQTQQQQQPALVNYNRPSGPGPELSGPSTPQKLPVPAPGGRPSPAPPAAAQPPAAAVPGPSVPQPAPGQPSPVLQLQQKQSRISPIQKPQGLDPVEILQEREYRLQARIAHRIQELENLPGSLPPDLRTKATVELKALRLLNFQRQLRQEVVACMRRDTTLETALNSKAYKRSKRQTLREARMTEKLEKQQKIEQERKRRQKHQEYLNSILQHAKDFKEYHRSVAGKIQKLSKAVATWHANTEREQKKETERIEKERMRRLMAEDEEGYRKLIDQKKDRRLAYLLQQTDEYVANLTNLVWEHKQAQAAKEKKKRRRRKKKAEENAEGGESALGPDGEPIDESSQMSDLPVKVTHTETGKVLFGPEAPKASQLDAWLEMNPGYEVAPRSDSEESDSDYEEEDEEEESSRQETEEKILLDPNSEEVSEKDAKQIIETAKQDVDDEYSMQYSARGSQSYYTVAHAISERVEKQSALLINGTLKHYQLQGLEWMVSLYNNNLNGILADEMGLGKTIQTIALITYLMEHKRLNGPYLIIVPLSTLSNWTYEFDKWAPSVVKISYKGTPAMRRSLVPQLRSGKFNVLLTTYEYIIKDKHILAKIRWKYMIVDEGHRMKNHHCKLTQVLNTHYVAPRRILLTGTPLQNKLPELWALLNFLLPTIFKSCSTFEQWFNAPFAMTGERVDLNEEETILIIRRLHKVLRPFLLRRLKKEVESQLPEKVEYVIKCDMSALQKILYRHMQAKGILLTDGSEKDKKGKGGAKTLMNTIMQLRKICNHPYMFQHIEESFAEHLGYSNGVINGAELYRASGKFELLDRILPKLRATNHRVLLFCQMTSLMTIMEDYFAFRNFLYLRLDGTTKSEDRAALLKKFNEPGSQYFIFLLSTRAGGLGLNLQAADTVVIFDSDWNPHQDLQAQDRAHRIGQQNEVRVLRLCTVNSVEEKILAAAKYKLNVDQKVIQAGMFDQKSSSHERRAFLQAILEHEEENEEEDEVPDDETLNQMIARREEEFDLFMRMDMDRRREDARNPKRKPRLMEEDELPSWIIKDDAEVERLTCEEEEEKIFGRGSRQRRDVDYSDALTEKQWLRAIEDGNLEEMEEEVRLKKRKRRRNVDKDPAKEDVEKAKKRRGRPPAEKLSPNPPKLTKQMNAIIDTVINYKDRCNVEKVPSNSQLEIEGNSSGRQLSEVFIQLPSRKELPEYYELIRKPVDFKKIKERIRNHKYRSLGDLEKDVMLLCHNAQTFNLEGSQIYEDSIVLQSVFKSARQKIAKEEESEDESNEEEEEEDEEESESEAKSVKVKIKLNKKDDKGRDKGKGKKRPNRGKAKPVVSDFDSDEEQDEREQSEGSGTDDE
Catalogue of DC50 readings, one per entry.

For orientation, consider the following solved cases.
| molecule | measureName | reportedValue |
| --- | --- | --- |
| Cc1ncsc1-c1ccc(CNC(=O)[C@@H]2C[C@@H](O)CN2C(=O)[C@@H](NC(=O)[C@H]2CCC3(CC2)C[C@H](N2CCC(c4cnc(N5CCN6c7cc(-c8ccccc8O)nnc7NC[C@H]6C5)nc4)CC2)C3)C(C)(C)C)cc1 (single isomer, unassigned) [I-70] | DC50 | 1 to 10 nM |
| Cc1ncsc1-c1ccc(CNC(=O)[C@@H]2C[C@@H](O)CN2C(=O)[C@@H](NC(=O)C2(F)CC2)C(C)(C)C)c(OCCCCN2CCN(c3cnc(N4CCN5c6cc(-c7ccccc7O)nnc6NC[C@H]5C4)nc3)CC2)c1 (single isomer, unassigned) | DC50 | < 1 nM |
| Cc1ncsc1-c1ccc(CNC(=O)[C@@H]2C[C@@H](O)CN2C(=O)C(c2cc(OC[C@H]3CC[C@H](N4CCC(c5cnc(N6CCc7[nH]c8nnc(-c9ccccc9O)cc8c7[C@H]6C)nc5)CC4)CC3)no2)C(C)C)cc1 (single isomer, unassigned) | DC50 | 1 to 10 nM |

Query :: Give the measured DC50 for `C#Cc1ccc(CNC(=O)[C@@H]2C[C@@H](O)CN2C(=O)[C@@H](NC(=O)N2CCN(CC3CCN([C@H]4CC[C@H](N5CCc6[nH]c7nnc(-c8ccccc8O)cc7c6[C@H]5C)CC4)CC3)CC2)C(C)(C)C)cc1`
Result :: > 100 nM

Query :: Specify measured DC50 for C#Cc1ccc(CNC(=O)[C@@H]2C[C@@H](O)CN2C(=O)[C@@H](NC(=O)[C@H]2CCC3(CC2)C[C@H](N2CCC(N4CCC(N5CCN6c7cc(-c8ccccc8O)nnc7NC[C@H]6C5)CC4)CC2)C3)C(C)(C)C)c(OC)c1 (stereo partly shown) [I-178] .
Result :: 10 to 100 nM

====

molecular target: UniProt:P51531; experiment: SMARCA2 Western blot degradation in MV4-11 cells; format: cell-based; set-up: SMARCA2/SMARCA4 protein degradation selectivity in MV4-11 cells; endogenous in cells; host or cells: MV4-11; conditions: MV4-11 cells, 24 h; read-out: SMARCA2 MSD MV411 degradation 24 h: Mean external-Abs DC50
# maps each entry to its DC50

These solved cases illustrate the format of a correct answer.
| compound | measureName | reportedValue |
| --- | --- | --- |
| C#Cc1ccc(CNC(=O)[C@@H]2C[C@@H](O)CN2C(=O)[C@@H](NC(=O)N2CCC[C@@H](CN3CCC(N4CCC(N5CCN6c7cc(-c8ccccc8O)nnc7NC[C@H]6C5)CC4)CC3)C2)C(C)(C)C)cc1 (single isomer, unassigned) | DC50 | > 100 nM |
| C#Cc1ccc(CNC(=O)[C@@H]2C[C@@H](O)CN2C(=O)[C@@H](NC(=O)[C@H]2CCC3(CC2)C[C@H](N2CCC(c4cnc(N5CCN6c7cc(-c8cccc(F)c8O)nnc7NC[C@H]6C5)nc4)CC2)C3)C(C)(C)C)cc1 (single isomer, unassigned) [I-102] | DC50 | 1 to 10 nM |
| Cn1nccc1-c1ccc(CNC(=O)[C@@H]2C[C@@H](O)CN2C(=O)[C@@H](NC(=O)[C@H]2CC[C@@H](c3ccc(-c4cnc(N5CCN6c7cc(-c8ccccc8O)nnc7NC[C@H]6C5)nc4)cc3)CC2)C(C)(C)C)cc1 (single isomer, unassigned) | DC50 | < 1 nM |

Query :: State DC50 on UniProt:P51531. Entry: `C#Cc1ccc(CNC(=O)[C@@H]2C[C@@H](O)CN2C(=O)[C@@H](NC(=O)N2CC3(CC(N4CCC(c5cnc(N6CCc7[nH]c8nnc(-c9ccccc9O)cc8c7[C@H]6C)nc5)CC4)C3)C2)C(C)(C)CCO)cc1`
Result :: 1 to 10 nM

====

Molecular target: SMARCA4 (Homo sapiens)
Construct: SMARCA2/SMARCA4 protein degradation selectivity in MV4-11 cells; endogenous in cells; host or cells: MV4-11
Sequence (P51532 whole entry): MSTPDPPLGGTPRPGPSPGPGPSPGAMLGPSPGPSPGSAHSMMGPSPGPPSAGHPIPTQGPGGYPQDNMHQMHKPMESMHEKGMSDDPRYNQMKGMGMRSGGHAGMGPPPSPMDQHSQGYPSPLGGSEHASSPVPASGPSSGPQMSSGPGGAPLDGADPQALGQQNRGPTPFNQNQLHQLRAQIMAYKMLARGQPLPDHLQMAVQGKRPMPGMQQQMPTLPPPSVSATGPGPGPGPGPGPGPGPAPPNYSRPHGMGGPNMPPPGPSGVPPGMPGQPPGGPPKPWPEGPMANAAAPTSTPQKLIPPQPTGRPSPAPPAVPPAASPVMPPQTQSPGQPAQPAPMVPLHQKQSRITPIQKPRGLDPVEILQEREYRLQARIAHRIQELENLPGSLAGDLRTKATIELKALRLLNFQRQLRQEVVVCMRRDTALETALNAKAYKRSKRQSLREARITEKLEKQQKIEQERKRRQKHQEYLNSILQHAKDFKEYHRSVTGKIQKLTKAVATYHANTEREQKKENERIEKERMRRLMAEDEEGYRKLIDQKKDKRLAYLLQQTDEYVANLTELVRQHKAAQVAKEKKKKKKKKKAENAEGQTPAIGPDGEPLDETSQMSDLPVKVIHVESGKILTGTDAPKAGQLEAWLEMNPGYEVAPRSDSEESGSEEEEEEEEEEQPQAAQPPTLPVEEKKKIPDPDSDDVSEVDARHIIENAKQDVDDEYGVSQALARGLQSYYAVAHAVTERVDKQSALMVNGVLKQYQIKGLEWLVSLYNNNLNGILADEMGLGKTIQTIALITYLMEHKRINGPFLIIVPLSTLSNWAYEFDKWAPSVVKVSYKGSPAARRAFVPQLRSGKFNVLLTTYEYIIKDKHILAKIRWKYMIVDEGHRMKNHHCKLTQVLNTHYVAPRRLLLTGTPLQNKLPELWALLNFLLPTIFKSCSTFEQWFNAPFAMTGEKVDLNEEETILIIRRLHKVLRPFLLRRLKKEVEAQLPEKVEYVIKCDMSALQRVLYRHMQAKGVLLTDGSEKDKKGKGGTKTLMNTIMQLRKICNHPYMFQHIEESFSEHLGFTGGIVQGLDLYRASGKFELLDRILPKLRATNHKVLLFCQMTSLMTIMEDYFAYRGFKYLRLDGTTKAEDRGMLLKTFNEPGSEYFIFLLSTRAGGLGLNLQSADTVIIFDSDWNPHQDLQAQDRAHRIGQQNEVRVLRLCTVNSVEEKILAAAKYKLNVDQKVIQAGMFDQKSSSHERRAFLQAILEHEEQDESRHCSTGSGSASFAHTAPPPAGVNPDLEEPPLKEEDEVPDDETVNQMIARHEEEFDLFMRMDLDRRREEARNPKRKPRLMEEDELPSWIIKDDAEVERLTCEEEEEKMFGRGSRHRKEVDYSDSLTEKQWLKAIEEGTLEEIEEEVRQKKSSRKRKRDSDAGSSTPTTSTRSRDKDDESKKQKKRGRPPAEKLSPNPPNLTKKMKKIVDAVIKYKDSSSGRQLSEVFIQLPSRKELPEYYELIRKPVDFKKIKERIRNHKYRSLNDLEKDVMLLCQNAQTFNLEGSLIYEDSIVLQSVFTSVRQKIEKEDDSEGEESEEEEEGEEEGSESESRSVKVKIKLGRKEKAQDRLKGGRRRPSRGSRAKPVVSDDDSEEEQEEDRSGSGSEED
Assay: SMARCA4 Western blot degradation in MV4-11 cells
Assay type: cell-based
Conditions: MV4-11, MV4-11 cells, 24 h; read-out: SMARCA4 MSD MV411 degradation 24 h: average Dmax %
Method: Example 11. SMARCA2 and SMARCA4 Western Blot MV4-11 Degradation Cells were seeded into 6-well plates (MV4-11:4×10^6 cells/well/1 ml) and 1 ml of 2× compound solution was added into the well to make the final concentration and the plates were mixed well and incubated for 24 hours (No cytotoxicity was observed). The cell were collected with media and spun at 3000 rpm for 5 minutes. […] The membrane was washed three times with 5 minutes each and lastly the LiCOR was read. […]
Quick reference for Dmax among some compounds

Query :: # return recorded Dmax for entry `C#Cc1ccc([C@H](C)NC(=O)[C@@H]2C[C@@H](O)CN2C(=O)[C@@H](NC(=O)N2CC3(CC(N4CCC(c5cnc(N6CCc7[nH]c8nnc(-c9ccccc9O)cc8c7[C@H]6C)nc5)CC4)C3)C2)C(C)(C)CCO)cc1`
Result :: < 50%
